Values from the supplement of paper PMC10724198

system: Saccharomyces cerevisiae; assay: protein stability index of tFT-peptide fusion (C-terminal peptide) (PSI (0-1 scale)); higher = more stable (slower turnover); settings: genetic background: wild type; temperature: 30 C
Quick reference: protein stability index of the listed items.

Worked set:
INSERT INTO results (record_sequence, result) VALUES
  ('DTVVRLIDNIVI [PAN6 C-terminal 12 aa]', 0.702),
  ('GKLPSSLLSYFV [ZUO1 C-terminal 12 aa]', 0.673),
  ('NEALVKTTKQKL [LPX1 C-terminal 12 aa]', 0.704),
  ('DIISFTSTLHGG [URM1 C-terminal 12 aa]', 0.705),
  ('EVVKRYLKMRQD [PUP3 C-terminal 12 aa]', 0.6),
  ('QMRKNMTRTDEK [PKH1 C-terminal 12 aa]', 0.714),
  ('QRSKSKRQKRRK [YNG1 C-terminal 12 aa]', 0.652),
  ('KKGPKFKSRKKL [RRP12 C-terminal 12 aa]', 0.678);

Prompt line: Provide value of protein stability index for this record tested with Saccharomyces cerevisiae: LEKQEDYIDNLV [RPC37 C-terminal 12 aa]
Response line: 0.73

Prompt line: Try EREKVDIHIPQV [BEM3 C-terminal 12 aa] next.
Response line: 0.701

Prompt line: Try THTHHNPNPTLF [YNL338W C-terminal 12 aa] next.
Response line: 0.716

Prompt line: Try TQSPADFSSQNH [NHX1 C-terminal 12 aa] next.
Response line: 0.701

Prompt line: Try ALSKVGIYTIAN [PAU10 C-terminal 12 aa] next.
Response line: 0.675

Prompt line: Try ENYYPSSLTLDI [JLP1 C-terminal 12 aa] next.
Response line: 0.696

Prompt line: Try GSEHSDPFSTFY [DBF20 C-terminal 12 aa] next.
Response line: 0.724

* * *

system: Saccharomyces cerevisiae; assay: protein stability index of tFT-peptide fusion (C-terminal peptide) (PSI (0-1 scale)); higher = more stable (slower turnover); conditions: genetic background: das1 deletion; temperature: 37 C
Quick reference: protein stability index of the listed items.
Respond using a number only.

Worked set:
INSERT INTO assay_data (record_sequence, quantitative_result) VALUES
  ('FHICTQLIFITC', 0.198),
  ('YVGILCTGILTV', 0.564),
  ('RFPFFLPFIAFL', 0.637);

Prompt line: Looking for the measured protein stability index of RGGVRGVRSGRG , can you help?
Response line: 0.565

Prompt line: Try MLCVFVFIWYFV next.
Response line: 0.359

* * *

tested on: Saccharomyces cerevisiae; assay: protein stability index of tFT-peptide fusion (C-terminal peptide) (PSI (0-1 scale)); higher = more stable (slower turnover); conditions: genetic background: wild type; temperature: 30 C
Tag: yes (1) if measured protein stability index is not below 0.6, no (0) if it is.

Prompt line: Textbook exercise: given the entry PPPHPRPSPPSP , state whether its protein stability index is greater than or equal to 0.6.
Response line: yes (1)

* * *

Quick reference: protein stability index of the listed items.
test system: Saccharomyces cerevisiae; test: protein stability index of tFT-peptide fusion (C-terminal peptide) (PSI (0-1 scale)); higher = more stable (slower turnover); settings: genetic background: wild type; temperature: 37 C
Respond using a number only.

INSERT INTO measurements (record_sequence, system_tested, quantitative_result) VALUES
  ('GNRDLVNTSVEG', 'Saccharomyces cerevisiae', 0.699),
  ('GGVVLVVVFCCV', 'Saccharomyces cerevisiae', 0.34),
  ('VYEVELSVRVTV', 'Saccharomyces cerevisiae', 0.51);

Prompt line: Looking for the measured protein stability index of RVIRHLRRISNF , can you help?
Response line: 0.307

Prompt line: Try AITHVILLVTPL next.
Response line: 0.552

Prompt line: Try WLLVVCRGLVFR next.
Response line: 0.405

Prompt line: Try SSCFLLFRVVWR next.
Response line: 0.412

Prompt line: Try GLSVLLTCIHFV next.
Response line: 0.333

Prompt line: Try LLCGVLFFFWVV next.
Response line: 0.451

* * *

Quick reference: protein stability index of the listed items.
test system: Saccharomyces cerevisiae; assay: protein stability index of tFT-peptide fusion (C-terminal peptide) (PSI (0-1 scale)); higher = more stable (slower turnover); settings: genetic background: wild type; temperature: 30 C
Respond using a number only.

Worked set:
INSERT INTO results (record_sequence, quantitative_result) VALUES
  ('EDSKEYFEAANK [TSA1 C-terminal 12 aa]', 0.704),
  ('LSDKNPEFKYMY [TNA1 C-terminal 12 aa]', 0.706),
  ('KVHEHDAKNDSK [CMP2 C-terminal 12 aa]', 0.688),
  ('PTVTRKTPDYFL [PPH22 C-terminal 12 aa]', 0.718),
  ('LPQRSIPCAIYP [YCR108C C-terminal 12 aa]', 0.704);

Kindly review the next sequence as well.
Prompt line: Looking for the measured protein stability index of DRLKRRNNDYGF [MSO1 C-terminal 12 aa] , can you help?
Response line: 0.738

* * *

system: Saccharomyces cerevisiae; assay: protein stability index of tFT-peptide fusion (C-terminal peptide) (PSI (0-1 scale)); higher = more stable (slower turnover); conditions: genetic background: wild type; temperature: 30 C
experimental readout: protein stability index
Respond using a number only.

Worked set:
INSERT INTO measurements (record_sequence, quantitative_result) VALUES
  ('AIFAPPFPPTPV', 0.69),
  ('GFVCFIHLFLCF', 0.407),
  ('CVCVVVCWRCGF', 0.481),
  ('VSLVVGTGEWGA', 0.762),
  ('RRKEEEGKEVRK', 0.666),
  ('PLPPSLRPALSP', 0.719),
  ('GGGVWYFSWSFC', 0.595),
  ('VLRHRGEGGPGA', 0.67),
  ('VCGSRAVRRTEL', 0.712),
  ('GGTGGRLGVGHV', 0.704);

Prompt line: Looking for the measured protein stability index of ESLAKLPLRRPR , can you help?
Response line: 0.63

Prompt line: Try VFCGACRLHLCL next.
Response line: 0.69

* * *

tested on: Saccharomyces cerevisiae; assay: protein stability index of tFT-peptide fusion (C-terminal peptide) (PSI (0-1 scale)); higher = more stable (slower turnover); conditions: genetic background: wild type; temperature: 30 C
experimental readout: protein stability index
Respond using a number only.

INSERT INTO results (record_sequence, quantitative_result) VALUES
  ('HGLESMNRYRWI', 0.555);

Kindly review the next sequence as well.
Prompt line: Looking for the measured protein stability index of TKRIKEERTKKC , can you help?
Response line: 0.65

* * *

tested on: Saccharomyces cerevisiae; assay: protein stability index of tFT-peptide fusion (C-terminal peptide) (PSI (0-1 scale)); higher = more stable (slower turnover); details: genetic background: wild type; temperature: 30 C
experimental readout: protein stability index
Respond using a number only.

Worked set:
INSERT INTO results (record_sequence, quantitative_result) VALUES
  ('FRCSLLGGYTLE', 0.737),
  ('VSLIFCLFFLSC', 0.442),
  ('PPPVPPPAPLLS', 0.642);

Prompt line: Looking for the measured protein stability index of GSGLEAGVRRWG , can you help?
Response line: 0.67

Prompt line: Try RCTRQVHPLTFR next.
Response line: 0.66

* * *

test system: Saccharomyces cerevisiae; test: protein stability index of tFT-peptide fusion (C-terminal peptide) (PSI (0-1 scale)); higher = more stable (slower turnover); conditions: genetic background: das1 deletion; temperature: 30 C
experimental readout: protein stability index

INSERT INTO measurements (record_sequence, experimental_readout, result) VALUES
  ('RGIAAIRESLSN [YIR042C C-terminal 12 aa]', 'protein stability index', 0.668),
  ('HVKDHQPGKPFI [YDR433W C-terminal 12 aa]', 'protein stability index', 0.689),
  ('MNAAENEVKKEK [SUR2 C-terminal 12 aa]', 'protein stability index', 0.688),
  ('NEALVKTTKQKL [LPX1 C-terminal 12 aa]', 'protein stability index', 0.703),
  ('NTFVLNMSRFII [YDL068W C-terminal 12 aa]', 'protein stability index', 0.674);

Kindly review the next sequence as well.
Prompt line: Looking for the measured protein stability index of LSAIVFLGTSSH [AVT5 C-terminal 12 aa] , can you help?
Response line: 0.715

* * *

test system: Saccharomyces cerevisiae; assay: protein stability index of tFT-peptide fusion (C-terminal peptide) (PSI (0-1 scale)); higher = more stable (slower turnover); conditions: genetic background: wild type; temperature: 37 C
experimental readout: protein stability index
Respond using a number only.

Worked set:
INSERT INTO results (record_sequence, quantitative_result) VALUES
  ('RVLVEIVYFKVF', 0.055),
  ('VNTLCCVFRCNL', 0.891),
  ('CFFPFLCFVVGA', 0.49),
  ('FLYFLLQFLCSG', 0.579),
  ('VSTVCLDFSPFL', 0.737);

Prompt line: Looking for the measured protein stability index of SRRSIGAYLFVS , can you help?
Response line: 0.411

Prompt line: Try IKIQPKKRISLI next.
Response line: 0.391

Prompt line: Try GCVGLSFCVWVG next.
Response line: 0.396

Prompt line: Try VVLVVVWWGGVE next.
Response line: 0.403

Prompt line: Try LVFLYFHFCCGF next.
Response line: 0.531
